Listed molecules paired with reported Relative Abundance (% Total)
testName: Metabolite study in human liver S9 (high resolution LC-MS)
Format: in vitro ADME
cond: metabolites of Q-M3190 at 4 hours in human liver S9
Answer format: numeric, % Total implied, no suffix.

1) CCc1cc(OCCCCn2cc(COCCOCCOCCOCCOCCOCCOCCOCCN)nn2)ccc1-c1ccc(C[C@H](NC(=O)[C@H](CC(=O)O)NC(=O)[C@H](CO)NC(=O)[C@@H](NC(=O)[C@](C)(Cc2ccccc2F)NC(=O)[C@@H](NC(=O)CNC(=O)[C@H](Cc2nn[nH]n2)NC(=O)C(C)(C)C(=O)NCCc2cnc[nH]2)[C@@H](C)O)[C@@H](C)O)C(=O)N[C@@H](CCCc2cc(C)cc(C)c2)C(N)=O)cc1 ... 2.76
2) CCc1cc(OCCCCn2cc(COCCOCCOCCOCCOCCOCCOCCOCCNC(=O)CC[C@H](N)C(=O)O)nn2)ccc1-c1ccc(C[C@H](NC(=O)[C@H](CC(=O)O)NC(=O)[C@H](CO)NC(=O)[C@@H](NC(=O)C(C)(Cc2ccccc2F)NC(=O)[C@@H](NC(=O)CNC(=O)[C@H](Cc2nn[nH]n2)NC(=O)C(C)(C)C(=O)NCCc2cnc[nH]2)[C@@H](C)O)[C@@H](C)O)C(=O)N[C@@H](CCCc2cc(C)cc(C)c2)C(=O)O)cc1 (stereo partly drawn) ... 38.40

API: the following record is the query input.
QUERY: Please supply the value of reported Relative Abundance (% Total) for the item CCc1cc(OCCCCn2cc(COCCOCCOCCOCCOCCOCCOCCOCCN)nn2)ccc1-c1ccc(C[C@H](NC(=O)[C@H](CC(=O)O)NC(=O)[C@H](CO)NC(=O)[C@@H](NC(=O)C(C)(Cc2ccccc2F)NC(=O)[C@@H](NC(=O)CNC(=O)[C@H](Cc2nn[nH]n2)NC(=O)C(C)(C)C(=O)NCCc2cnc[nH]2)[C@@H](C)O)[C@@H](C)O)C(=O)N[C@@H](CCCc2cc(C)cc(C)c2)C(=O)O)cc1 (stereo partly drawn)
RESULT: 2.34

====

experimentalTarget: GLP-1R (Homo sapiens)
Sequence (P43220 24-463): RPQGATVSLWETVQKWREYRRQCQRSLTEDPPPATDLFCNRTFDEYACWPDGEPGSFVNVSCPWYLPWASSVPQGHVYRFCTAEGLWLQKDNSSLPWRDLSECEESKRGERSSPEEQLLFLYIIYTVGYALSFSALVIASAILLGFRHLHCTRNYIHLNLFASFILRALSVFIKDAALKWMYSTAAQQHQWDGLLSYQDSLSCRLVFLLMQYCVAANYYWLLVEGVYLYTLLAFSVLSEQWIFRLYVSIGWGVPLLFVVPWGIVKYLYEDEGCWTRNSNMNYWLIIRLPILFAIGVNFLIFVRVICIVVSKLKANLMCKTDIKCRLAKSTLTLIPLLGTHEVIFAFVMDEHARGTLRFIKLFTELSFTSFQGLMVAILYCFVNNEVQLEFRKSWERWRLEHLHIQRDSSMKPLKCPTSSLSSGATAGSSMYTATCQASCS
testName: GLP-1R cAMP assay of peptides (Tables 10, 14, 15)
Format: cell-based
cond: Table 10
Starred links: 1 amine or outer side, 2 acyl side, 3 side chain; linkers in the order of their positions; H or OH if unused. Non-standard residues stand in square brackets, D forms with d. Residues, ends and D or L forms follow the SMILES beside them. *: point of attachment. X1 = CCc1cc(OCCCCn2cc(COCCOCCOCCOCCOCCOCCOCCOCCN)nn2)ccc1-c1ccc(C[C@H](N[*:1])C(=O)[*:2])cc1; Malonyl(2,2-Me2,histaminyl) = CC(C)(C(=O)NCCc1cnc[nH]1)C(=O)*; Ala(1H-tetrazol-5-yl) = N[C@@H](Cc1nnn[nH]1)C(=O)O; αMePhe(2-F) = C[C@](N)(Cc1ccccc1F)C(=O)O
Labelling: GLP-1R CAMP Max reported below 50% becomes Yes; at or above becomes No.

1. C[C@@H](O)[C@H](NC(=O)CNC(=O)[C@H](Cc1nn[nH]n1)NC(=O)C(C)(C)C(=O)NCCc1cnc[nH]1)C(=O)O [AA10-AA9-AA8-AA7-OH] ... Yes

QUERY: Lab note: GLP-1R CAMP Max threshold 50%. Does this compound come in strictly under it? CCc1cc(OCCCCn2cc(COCCOCCOCCOCCOCCOCCOCCOCCNC(=O)CC[C@H](NC(=O)[C@H](CC(C)C)NC(=O)[C@@H](N)CC(C)C)C(=O)O)nn2)ccc1-c1ccc(C[C@H](NC(=O)[C@H](CC(=O)O)NC(=O)[C@H](CO)NC(=O)[C@@H](NC(=O)C(C)(Cc2ccccc2F)NC(=O)[C@@H](NC(=O)CNC(=O)[C@H](Cc2nn[nH]n2)NC(=O)C(C)(C)C(=O)NCCc2cnc[nH]2)[C@@H](C)O)[C@@H](C)O)C(=O)O)cc1 (stereo partly shown) [M6321]
RESULT: Yes

QUERY: Lab note: GLP-1R CAMP Max threshold 50%. Does this compound come in strictly under it? CCc1cc(OCCCCn2cc(COCCOCCOCCOCCOCCOCCOCCOCCN)nn2)ccc1-c1ccc(C[C@H](NC(=O)[C@H](CC(=O)O)NC(=O)[C@H](CO)NC(=O)[C@@H](NC(=O)C(C)(Cc2ccccc2F)NC(=O)[C@@H](NC(=O)CNC(=O)[C@H](Cc2nnn[nH]2)NC(=O)C(C)(C)C(=O)NCCc2cnc[nH]2)[C@@H](C)O)[C@@H](C)O)C(=O)O)cc1 (stereo partly shown) [M6324]
RESULT: No

QUERY: Lab note: GLP-1R CAMP Max threshold 50%. Does this compound come in strictly under it? C[C@@H](O)[C@H](NC(=O)CNC(=O)[C@H](Cc1nn[nH]n1)NC(=O)C(C)(C)C(=O)NCCc1cnc[nH]1)C(=O)N[C@@](C)(Cc1ccccc1F)C(=O)N[C@H](C(=O)N[C@@H](CO)C(=O)O)[C@@H](C)O [AA10-AA9-AA8-AA7-AA6-AA5-AA4-OH] ({Malonyl(2,2-Me2,histaminyl)}-[Ala(1H-tetrazol-5-yl)]GT[αMePhe(2-F)]TS-OH)
RESULT: Yes

QUERY: Lab note: GLP-1R CAMP Max threshold 50%. Does this compound come in strictly under it? CCc1cc(OCCCCn2cc(COCCOCCOCCOCCOCCOCCOCCOCCN)nn2)ccc1-c1ccc(C[C@H](NC(=O)[C@H](CC(=O)O)NC(=O)[C@H](CO)NC(=O)[C@@H](NC(=O)[C@](C)(Cc2ccccc2F)NC(=O)[C@@H](NC(=O)CNC(=O)[C@H](Cc2nnn[nH]2)NC(=O)C(C)(C)C(=O)NCCc2cnc[nH]2)[C@@H](C)O)[C@@H](C)O)C(N)=O)cc1 ({Malonyl(2,2-Me2,histaminyl)}-[Ala(1H-tetrazol-5-yl)]GT[αMePhe(2-F)]TSD[X1]-NH2)
RESULT: No

QUERY: Lab note: GLP-1R CAMP Max threshold 50%. Does this compound come in strictly under it? CCc1cc(OCCCCn2cc(COCCOCCOCCOCCOCCOCCOCCOCCNC(=O)CC[C@H](N)C(=O)O)nn2)ccc1-c1ccc(C[C@H](NC(=O)[C@H](CC(=O)O)NC(=O)[C@H](CO)NC(=O)[C@@H](NC(=O)C(C)(Cc2ccccc2F)NC(=O)[C@@H](NC(=O)CNC(=O)[C@H](Cc2nn[nH]n2)NC(=O)C(C)(C)C(=O)NCCc2cnc[nH]2)[C@@H](C)O)[C@@H](C)O)C(=O)O)cc1 (stereo partly shown) [M6322]
RESULT: Yes

QUERY: Lab note: GLP-1R CAMP Max threshold 50%. Does this compound come in strictly under it? CCc1cc(OCCCCN=[N+]=[N-])ccc1-c1ccc(C[C@H](NC(=O)[C@H](CC(=O)O)NC(=O)[C@H](CO)NC(=O)[C@@H](NC(=O)C(C)(Cc2ccccc2F)NC(=O)[C@@H](NC(=O)CNC(=O)[C@H](Cc2nnn[nH]2)NC(=O)C(C)(C)C(=O)NCCc2cnc[nH]2)[C@@H](C)O)[C@@H](C)O)C(=O)O)cc1 (stereo partly shown) [AA10-AA9-AA8-AA7-AA6-AA5-AA4-AA3-AA2-OH]
RESULT: No

====

experimentalTarget: GLP-1R (Homo sapiens)
testName: GLP-1R cAMP assay of peptides (Tables 10, 14, 15)
Format: cell-based
cond: Table 10; read-out: GLP-1R CAMP EC50
Non-standard residues stand in square brackets, D forms with d. Residues, ends and D or L forms follow the SMILES beside them. ξ: configuration not given here. *: point of attachment. Bip(2'-Et,4'-O(CH2)4N3) = CCc1cc(OCCCCN=[N+]=[N-])ccc1-c1ccc(C[C@H](N)C(=O)O)cc1; Malonyl(2,2-Me2,histaminyl) = CC(C)(C(=O)NCCc1cnc[nH]1)C(=O)*; Nva(5-(3,5-Me2Ph)) = Cc1cc(C)cc(CCC[C@H](N)C(=O)O)c1; Ala(1H-tetrazol-5-yl) = N[C@@H](Cc1nnn[nH]1)C(=O)O; αMePhe(2-F) = C[C@](N)(Cc1ccccc1F)C(=O)O; ξαMePhe(2-F) = CC(N)(Cc1ccccc1F)C(=O)O; tBu = CC(C)(C)*
Listed compounds paired with reported EC50

1. CCc1cc(OCCCCN=[N+]=[N-])ccc1-c1ccc(C[C@H](NC(=O)[C@H](CC(=O)O)NC(=O)[C@H](COC(C)(C)C)NC(=O)[C@@H](NC(=O)C(C)(Cc2ccccc2F)NC(=O)[C@@H](NC(=O)CNC(=O)[C@H](Cc2nnn[nH]2)NC(=O)C(C)(C)C(=O)NCCc2cnc[nH]2)[C@@H](C)O)[C@@H](C)O)C(=O)N[C@@H](CCCc2cc(C)cc(C)c2)C(=O)O)cc1 (stereo partly shown) ({Malonyl(2,2-Me2,histaminyl)}-[Ala(1H-tetrazol-5-yl)]GT[ξαMePhe(2-F)]TS(tBu)D[Bip(2'-Et,4'-O(CH2)4N3)][Nva(5-(3,5-Me2Ph))]-OH) ... 2.94 nM
2. C[C@@H](O)[C@H](NC(=O)CNC(=O)[C@H](Cc1nn[nH]n1)NC(=O)C(C)(C)C(=O)NCCc1cnc[nH]1)C(=O)N[C@@](C)(Cc1ccccc1F)C(=O)N[C@H](C(=O)N[C@@H](CO)C(=O)N[C@@H](CC(=O)O)C(=O)O)[C@@H](C)O ... > 1000 nM
3. CCc1cc(OCCCCn2cc(COCCOCCOCCOCCOCCOCCOCCOCCN)nn2)ccc1-c1ccc(C[C@H](NC(=O)[C@H](CC(=O)O)NC(=O)[C@H](CO)NC(=O)[C@@H](NC(=O)C(C)(Cc2ccccc2F)NC(=O)[C@@H](NC(=O)CNC(=O)[C@H](Cc2nn[nH]n2)NC(=O)C(C)(C)C(=O)NCCc2cnc[nH]2)[C@@H](C)O)[C@@H](C)O)C(=O)N[C@@H](CCCc2cc(C)cc(C)c2)C(=O)O)cc1 (stereo partly shown) ... 2.23 nM

API: the following record is the query input.
QUERY: Give the observed EC50 of C[C@@H](O)[C@H](NC(=O)CNC(=O)[C@H](Cc1nn[nH]n1)NC(=O)C(C)(C)C(=O)NCCc1cnc[nH]1)C(=O)N[C@@](C)(Cc1ccccc1F)C(=O)N[C@H](C(=O)N[C@@H](CO)C(=O)O)[C@@H](C)O [AA10-AA9-AA8-AA7-AA6-AA5-AA4-OH] ({Malonyl(2,2-Me2,histaminyl)}-[Ala(1H-tetrazol-5-yl)]GT[αMePhe(2-F)]TS-OH) for GLP-1R (Homo sapiens).
RESULT: > 1000 nM
